# credit: ChEMBL document CHEMBL4043230

Biological target: Thymic stromal lymphopoietin (Homo sapiens) (UniProt Q969D9)
Sequence (Q969D9 whole entry): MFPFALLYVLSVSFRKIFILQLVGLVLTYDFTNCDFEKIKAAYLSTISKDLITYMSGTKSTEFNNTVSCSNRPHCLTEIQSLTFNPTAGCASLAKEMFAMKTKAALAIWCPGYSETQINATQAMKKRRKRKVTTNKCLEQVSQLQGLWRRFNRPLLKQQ
Assay: Inhibition of human N-terminal flag-tagged TSLP/human C-terminal octa histidine-tagged TSLPR interaction at 0.1 mM after 16 hrs by ELISA based spectrophotometric analysis
Where a SMILES comes first, the peptide text is derived from it.
REPORTED_PROPERTY: inhibition (%)

Solved cases (3 shown):
MOLECULE: CC(=O)N[C@@H](CCCNC(=N)N)C(=O)N[C@@H](CCC(N)=O)C(=O)N[C@@H](CCCNC(=N)N)C(=O)N[C@@H](C)C(=O)N[C@@H](CO)C(=O)N[C@@H](C)C(=O)N[C@@H](Cc1c[nH]c2ccccc12)C(=O)O (Ac-RQRASAW-OH)
SCALE_UNIT: %
inhibition: 38

MOLECULE: CC(=O)N[C@@H](C)C(=O)N[C@@H](C)C(=O)N[C@@H](Cc1cnc[nH]1)C(=O)N[C@@H](Cc1ccc(O)cc1)C(=O)NCC(=O)N[C@@H](CC(C)C)C(=O)N[C@@H](CCC(=O)O)C(=O)O (Ac-AAHYGLE-OH)
SCALE_UNIT: %
inhibition: 4

MOLECULE: CC(=O)N[C@@H](C)C(=O)N[C@@H](CCCNC(=N)N)C(=O)N[C@@H](CCC(N)=O)C(=O)N[C@@H](CCCNC(=N)N)C(=O)N[C@@H](C)C(=O)N[C@@H](CO)C(=O)N[C@@H](C)C(=O)O (Ac-ARQRASA-OH)
SCALE_UNIT: %
inhibition: 30

A = CC(C)C[C@H](NC(=O)CNC(=O)[C@H](Cc1ccc(O)cc1)NC(=O)[C@H](Cc1cnc[nH]1)NC(=O)[C@H](C)NC(=O)[C@H](C)NC(=O)[C@@H](N)CCCNC(=N)N)C(=O)N[C@@H](CCC(=O)O)C(=O)N[C@@H](C)C(=O)O (H-RAAHYGLEA-OH)
B = C[C@H](N)C(=O)N[C@@H](CCCNC(=N)N)C(=O)N[C@@H](CCC(N)=O)C(=O)N[C@@H](CCCNC(=N)N)C(=O)N[C@@H](C)C(=O)N[C@@H](CO)C(=O)N[C@@H](C)C(=O)N[C@@H](Cc1c[nH]c2ccccc12)C(=O)O (H-ARQRASAW-OH)
C = CC(C)C[C@H](NC(=O)CNC(=O)[C@H](Cc1ccc(O)cc1)NC(=O)[C@H](Cc1cnc[nH]1)NC(=O)[C@H](C)NC(=O)[C@H](C)NC(=O)[C@@H](N)CCCNC(=N)N)C(=O)N[C@@H](CCC(=O)O)C(=O)O (H-RAAHYGLE-OH)
D = CC(C)C[C@H](NC(=O)CNC(=O)[C@H](Cc1ccc(O)cc1)NC(=O)[C@H](Cc1cnc[nH]1)NC(=O)[C@H](C)NC(=O)[C@H](C)N)C(=O)N[C@@H](CCC(=O)O)C(=O)O (H-AAHYGLE-OH)
E = CC(=O)N[C@@H](CCCNC(=N)N)C(=O)N[C@@H](CCC(N)=O)C(=O)N[C@@H](CCCNC(=N)N)C(=O)N[C@@H](C)C(=O)N[C@@H](CO)C(=O)N[C@@H](C)C(=O)O (Ac-RQRASA-OH)
// ranking: key=inhibition, reverse=True Answer format: the labels, ordered as requested.
B, E, A, C, D
(B: 42%, E: 22%, A: 7%, C: 4%, D: 2%)

P = CC(=O)N[C@@H](CCCNC(=N)N)C(=O)N[C@@H](C)C(=O)N[C@@H](C)C(=O)N[C@@H](Cc1cnc[nH]1)C(=O)N[C@@H](Cc1ccc(O)cc1)C(=O)NCC(=O)N[C@@H](CC(C)C)C(=O)N[C@@H](CCC(=O)O)C(=O)O (Ac-RAAHYGLE-OH)
Q = CC(=O)N[C@@H](C)C(=O)N[C@@H](CCCNC(=N)N)C(=O)N[C@@H](CCC(N)=O)C(=O)N[C@@H](CCCNC(=N)N)C(=O)N[C@@H](C)C(=O)N[C@@H](CO)C(=O)N[C@@H](C)C(=O)N[C@@H](Cc1c[nH]c2ccccc12)C(=O)O (Ac-ARQRASAW-OH)
Lower inhibition: P or Q ? Kindly give the label for the entry you pick.
P
(P: 5%, Q: 50%)

###

Target: Thymic stromal lymphopoietin (Homo sapiens)
Test: Inhibition of human N-terminal flag-tagged TSLP/human C-terminal octa histidine-tagged TSLPR interaction at 1 mM after 16 hrs by ELISA based spectrophotometric analysis relative to control
Where a SMILES comes first, the peptide text is derived from it.
REPORTED_PROPERTY: inhibition (%)

COMPOUND: CC(=O)N[C@@H](C)C(=O)N[C@@H](C)C(=O)N[C@@H](Cc1cnc[nH]1)C(=O)N[C@@H](Cc1ccc(O)cc1)C(=O)NCC(=O)N[C@@H](CC(C)C)C(=O)N[C@@H](CCC(=O)O)C(=O)N[C@@H](C)C(=O)O (Ac-AAHYGLEA-OH)
inhibition / %: 26
--
COMPOUND: C[C@H](N)C(=O)N[C@@H](CCCNC(=N)N)C(=O)N[C@@H](CCC(N)=O)C(=O)N[C@@H](CCCNC(=N)N)C(=O)N[C@@H](C)C(=O)N[C@@H](CO)C(=O)N[C@@H](C)C(=O)N[C@@H](Cc1c[nH]c2ccccc12)C(=O)O (H-ARQRASAW-OH)
inhibition / %: 60
--
COMPOUND: CC(C)C[C@H](NC(=O)CNC(=O)[C@H](Cc1ccc(O)cc1)NC(=O)[C@H](Cc1cnc[nH]1)NC(=O)[C@H](C)NC(=O)[C@H](C)N)C(=O)N[C@@H](CCC(=O)O)C(=O)N[C@@H](C)C(=O)O (H-AAHYGLEA-OH)
inhibition / %: 59
--
COMPOUND: CC(C)C[C@H](NC(=O)CNC(=O)[C@H](Cc1ccc(O)cc1)NC(=O)[C@H](Cc1cnc[nH]1)NC(=O)[C@H](C)NC(=O)[C@H](C)NC(=O)[C@@H](N)CCCNC(=N)N)C(=O)N[C@@H](CCC(=O)O)C(=O)O (H-RAAHYGLE-OH)
inhibition / %: 45
--
COMPOUND: CC(=O)N[C@@H](C)C(=O)N[C@@H](CCCNC(=N)N)C(=O)N[C@@H](CCC(N)=O)C(=O)N[C@@H](CCCNC(=N)N)C(=O)N[C@@H](C)C(=O)N[C@@H](CO)C(=O)N[C@@H](C)C(=O)N[C@@H](Cc1c[nH]c2ccccc12)C(=O)O (Ac-ARQRASAW-OH)
inhibition / %: 65
--
COMPOUND: C[C@H](NC(=O)[C@H](CO)NC(=O)[C@H](C)NC(=O)[C@H](CCCNC(=N)N)NC(=O)[C@H](CCC(N)=O)NC(=O)[C@@H](N)CCCNC(=N)N)C(=O)O (H-RQRASA-OH)
inhibition / %: 18
--
COMPOUND: CC(C)C[C@H](NC(=O)CNC(=O)[C@H](Cc1ccc(O)cc1)NC(=O)[C@H](Cc1cnc[nH]1)NC(=O)[C@H](C)NC(=O)[C@H](C)NC(=O)[C@@H](N)CCCNC(=N)N)C(=O)N[C@@H](CCC(=O)O)C(=O)N[C@@H](C)C(=O)O (H-RAAHYGLEA-OH)
inhibition / %: 35
--
COMPOUND: CC(=O)N[C@@H](C)C(=O)N[C@@H](C)C(=O)N[C@@H](Cc1cnc[nH]1)C(=O)N[C@@H](Cc1ccc(O)cc1)C(=O)NCC(=O)N[C@@H](CC(C)C)C(=O)N[C@@H](CCC(=O)O)C(=O)O (Ac-AAHYGLE-OH)
inhibition / %: 37
--
COMPOUND: CC(=O)N[C@@H](CCCNC(=N)N)C(=O)N[C@@H](CCC(N)=O)C(=O)N[C@@H](CCCNC(=N)N)C(=O)N[C@@H](C)C(=O)N[C@@H](CO)C(=O)N[C@@H](C)C(=O)O (Ac-RQRASA-OH)
inhibition / %: 18
--
COMPOUND: CC(=O)N[C@@H](CCCNC(=N)N)C(=O)N[C@@H](C)C(=O)N[C@@H](C)C(=O)N[C@@H](Cc1cnc[nH]1)C(=O)N[C@@H](Cc1ccc(O)cc1)C(=O)NCC(=O)N[C@@H](CC(C)C)C(=O)N[C@@H](CCC(=O)O)C(=O)O (Ac-RAAHYGLE-OH)
inhibition / %: 52

1 = CC(=O)N[C@@H](C)C(=O)N[C@@H](CCCNC(=N)N)C(=O)N[C@@H](CCC(N)=O)C(=O)N[C@@H](CCCNC(=N)N)C(=O)N[C@@H](C)C(=O)N[C@@H](CO)C(=O)N[C@@H](C)C(=O)O (Ac-ARQRASA-OH)
2 = CC(=O)N[C@@H](CCCNC(=N)N)C(=O)N[C@@H](CCC(N)=O)C(=O)N[C@@H](CCCNC(=N)N)C(=O)N[C@@H](C)C(=O)N[C@@H](CO)C(=O)N[C@@H](C)C(=O)N[C@@H](Cc1c[nH]c2ccccc12)C(=O)O (Ac-RQRASAW-OH)
Lower inhibition: 1 or 2 ? Kindly give the label for the entry you pick.
1
